// provenance: the supplement of paper PMC3545927

target-of-assay: furin, P09958;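 further: purified furin at 1:10 enzyme:substrate in 50 mM HEPES pH 7.5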
Sequence (P09958 whole entry): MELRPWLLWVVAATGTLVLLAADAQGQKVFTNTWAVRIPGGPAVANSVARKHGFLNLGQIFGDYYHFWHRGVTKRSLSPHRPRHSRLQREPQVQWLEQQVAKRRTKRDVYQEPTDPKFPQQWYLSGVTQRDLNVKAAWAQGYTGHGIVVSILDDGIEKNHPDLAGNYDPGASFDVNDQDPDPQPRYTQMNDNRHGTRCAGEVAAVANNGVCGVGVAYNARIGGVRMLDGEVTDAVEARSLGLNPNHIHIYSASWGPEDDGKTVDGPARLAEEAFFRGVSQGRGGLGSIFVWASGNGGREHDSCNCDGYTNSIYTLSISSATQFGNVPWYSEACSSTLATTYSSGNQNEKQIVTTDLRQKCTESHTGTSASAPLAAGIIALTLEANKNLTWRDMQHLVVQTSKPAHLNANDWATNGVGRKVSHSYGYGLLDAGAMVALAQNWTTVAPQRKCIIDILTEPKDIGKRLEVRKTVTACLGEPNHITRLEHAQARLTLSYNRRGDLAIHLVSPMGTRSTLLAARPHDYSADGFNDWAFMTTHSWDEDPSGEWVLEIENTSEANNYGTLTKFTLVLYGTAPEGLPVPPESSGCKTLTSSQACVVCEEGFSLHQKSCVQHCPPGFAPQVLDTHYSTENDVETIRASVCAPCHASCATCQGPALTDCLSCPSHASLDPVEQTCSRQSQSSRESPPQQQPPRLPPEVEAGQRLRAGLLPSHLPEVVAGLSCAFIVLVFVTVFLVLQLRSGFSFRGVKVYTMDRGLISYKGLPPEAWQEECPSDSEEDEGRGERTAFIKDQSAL
protocol-summary: furin cleavage Z-score vs untreated control; higher = more cleavage, active = 3.5 or more, inactive = 1 or less, 8 variable residues between constant flanks
measurement-conditions: 15 min
This is one part of the list. The true hit rate is not given.

residue-string	furin cleavage Z-score
CARATRKIGIAGNASASA [FS-2132]	-1.56
CARSKRGWVWAGNASASA [FS-2605]	3.21
CARASRAKRRAGNASASA [FS-1477]	12.4
CARLKRDPGIAGNASASA [FS-2350]	4.16
CARVESENKVAGNASASA [HC1282]	-0.0116
CAHWSMSKRDAGNASASA [FS-335]	0.288
CARKKKAWIYAGNASASA [FS-2559]	-1.67
CAEHEVPCHRAGNASASA [HC2455]	1.57
CARMIRTNEAAGNASASA [FS-3000]	0.0077
CAVLKRDVDIAGNASASA [FS-1815]	-1.55
CALIRLKPTLAGNASASA [HC966]	-1.25
CALLLTTTQWAGNASASA [HC493]	-0.0284
CAVVKRPRRYAGNASASA [FS-314]	10.8
CAALTGTYVYAGNASASA [HC632]	-0.31
CARASRNKRPAGNASASA [FS-1559]	-0.194
CARKKKVWDYAGNASASA [FS-2424]	-1.66
CACVSRSKRDAGNASASA [FS-407]	10.3
CAVLHRRRRYAGNASASA [FS-891]	10.5
CAMEECSSHLAGNASASA [HC1737]	0.0684
CACVLRSKRDAGNASASA [FS-406]	8.74
CAEVVTSDWVAGNASASA [HC2211]	-1.03
CADSDAESYSAGNASASA [HC1350]	-2
CARLKRDRSAAGNASASA [FS-2220]	8.55
CAVVKCSMSYAGNASASA [HC2034]	0.000409
CARASRGGGGAGNASASA [FS-2891]	-0.464
CARVKRGWVWAGNASASA [FS-2101]	4.37
CARPKRGWVWAGNASASA [FS-2164]	-0.529
CAVLEDGVNYAGNASASA [HC239]	-2.21
CAVRKRSPWLAGNASASA [FS-3142]	0.44
CAVRKRDLQTAGNASASA [FS-3140]	5.9
